FYI, the data here is from paper PMC12650235.

Tested on: GII.4 HuNoV VLP (VP1 capsid) (Human norovirus GII.4 Hu/GII.4/DBM15-156/2015)
Assay: BLI
Conditions: BLI: PBST + 5 mM Mg2+, biotin-aptamer 100 nM, VLP 18.75-150 nM, Octet RED96; ELASA: VLP 3 ug/mL, aptamer 1 uM; CD: 10 mM Tris-HCl pH 7.4, 1.0 mM NaCl, 0.05 mM …
test readout: pKd
Scale note: pKd = -log10(concentration in M).

Qu. Report pKd for AACACGACCCACGTACCTGTGCGAGACACAGACCACCAAGGTGGGC [AP4-11] please.
Ans. 8.64
